system: NCI-H23; experiment: NCI tumour cell line growth inhibition, 48 h
Active and inactive are the calls of the source. No stated cut-off is given here; in the data, active = GI50 up to about 1.1 µM and inactive = higher.
Classes used: 1.0 (active), 0.0 (inactive)

# COMPOUND, TARGET_OR_SYSTEM, ASSIGNED_LABEL
data = [
    ("CC1C(=O)N=C2C(=CN(Cc3ccccc3)c3ccccc32)C(=O)N1C (stereo not given)", "NCI-H23", 0.0),
    ("CC1=NN(c2ccccc2)C(=O)C1/N=N/c1ccc(Br)cc1C (stereo not given)", "NCI-H23", 0.0),
    ("CC1CCC2C(C)C3C(CC4C5CC=C6CC(OC7OC(CO)C(O)C(OC8OC(CO)C(O)C(O)C8O)C7OC7OC(C)C(O)C(O)C7O)CCC6(C)C5CCC43C)N2C1 (stereo not given)", "NCI-H23", 0.0),
    ("CCOc1ccc(NC(=O)/C(=C/c2ccccc2)C(C)=O)cc1", "NCI-H23", 0.0),
    ("CC1=CC=C2c3ccccc3C=CN2C(=O)C1", "NCI-H23", 0.0),
    ("CN1CN(c2ccccc2)C2(CCN(CCCSc3ccccc3NC(=O)/C=C/c3ccccc3)CC2)C1=O", "NCI-H23", 0.0),
    ("COc1cc2cc(C(=O)N3CC(COS(C)(=O)=O)c4c3cc(N)c3ccccc43)[nH]c2c(OC)c1OC (stereo not given)", "NCI-H23", 1.0),
    ("Cc1cc(Cc2c(F)c(F)c(C(c3cc(C)no3)c3c(F)c(F)c(F)c(F)c3F)c(F)c2F)on1 (stereo not given)", "NCI-H23", 0.0),
    ("S=C1CCSc2c(ccc3ccccc23)N1", "NCI-H23", 0.0),
    ("O=[As](O)(O)c1ccc(/N=N/c2ccc(O)cc2)cc1", "NCI-H23", 0.0),
]

----------
tested on: OVCAR-3; test: NCI tumour cell line growth inhibition, 48 h
The source made the active and inactive calls. Rule as the data show it: active = GI50 up to about 1.1 µM and inactive = higher.
Classes used: active, inactive

# COMPOUND, ASSIGNED_LABEL
rows = [
    ("CC(NC(=O)C1(N)CCCC1)C(=O)O (stereo unspecified)", "inactive"),
    ("CN(c1ccccc1Cl)S(=O)(=O)c1ccccc1", "inactive"),
    ("O=S(=O)(c1ccc(-c2nnc(-c3ccc(F)cc3)o2)cc1)c1ccc(-c2nnc(-c3ccc(F)cc3)o2)cc1", "inactive"),
    ("CCOP(=O)(OCC)/C(=C/NC(=S)c1ccncc1)C(=O)OC", "inactive"),
    ("O=c1c2cc(Cl)ccc2sc2cccc(Cl)c12", "inactive"),
    ("CN1C=Cc2nccc3cc4c(c1c23)OCO4", "inactive"),
    ("CC[C@H]1CC(=O)c2c(cc3c(c2O)C(=O)c2ccccc2C3=O)[C@@]1(C#N)C(=O)OC(C)(C)C", "inactive"),
    ("COC(=O)/C=C\\C(C#N)(C#N)/N=C/c1sccc1C", "inactive"),
    ("CCN(CC)CCC(=O)N1CCc2c([nH]c3ccccc23)C1c1cccnc1 (stereo unspecified)", "inactive"),
    ("NCC1OC(OC2C(N)CC(N)C(O)C2OC2OC(CO)C(O)C2O)C(N)C(O)C1O (stereo unspecified)", "inactive"),
    ("Cc1cccc(/N=C/C=C(\\Cl)c2ccc3ccccc3c2)c1", "inactive"),
    ("CCOC(=O)c1ccc(/N=C/c2ccc(N(CCC#N)S(=O)(=O)c3ccccc3)cc2C)cc1", "inactive"),
    ("CN1C(=O)C(C(=O)Nc2ccccn2)C2C[C@@]1(C)Oc1ccccc12 (stereo partly specified)", "inactive"),
    ("Cc1cc(=O)oc2c1cc1ccc3cccc4ccc2c1c34", "inactive"),
    ("Cc1ccc(C(=O)O/N=C2/CCCC/C2=C\\c2ccccc2)cc1", "inactive"),
    ("CN1C/C(=C\\c2cccs2)C2=NN(c3ccccc3)C(c3cccs3)C2C1 (stereo unspecified)", "inactive"),
    ("N#Cc1c2ccc([N+](=O)[O-])cc2c(=O)n2c1sc1ccc(C(F)(F)F)cc12", "inactive"),
    ("COc1cccc2c1C1=CC(=O)CCC1C(C)(C)O2 (stereo unspecified)", "inactive"),
    ("Cc1ccc(OCC2OC(n3cnc4c(Cl)nc(N)nc43)CC2Oc2ccc(C)cc2)cc1 (stereo unspecified)", "inactive"),
    ("COc1ccc(/C=C/C(=O)c2nc3ccccc3[nH]2)cc1", "inactive"),
    ("Cc1ccc(-c2sc(-c3ccc(C)cc3)c3c2C2CCC3C2)cc1", "inactive"),
    ("CC(=N\\N=C\\c1ccccn1)/C(C)=N/N=C/c1ccccn1", "inactive"),
    ("CCN(CC)CC1CCCCN1CC(=O)N1c2ccccc2NC(=O)c2ccccc21 (stereo unspecified)", "inactive"),
    ("Cc1nc(SCC(=O)Nc2ccc(Cl)cc2)c2sc(=S)n(-c3ccccc3)c2n1", "inactive"),
    ("OC(CC(O)(C(F)(F)F)C(F)(F)F)c1ccc(C(O)CC(O)(C(F)(F)F)C(F)(F)F)cc1 (stereo unspecified)", "inactive"),
    ("O=C1/C(=C/c2ccc(Cl)cc2)CCC1CNc1ccc(Cl)cc1 (stereo unspecified)", "inactive"),
    ("COc1ccc(/C=C(\\C(C)=O)C(=O)Nc2ccccc2)cc1", "inactive"),
    ("CC(C)(C)C(=O)C(Cc1ccccc1)C(=O)C(C)(C)C", "inactive"),
    ("CCO[C@@]1(COCc2ccccc2)OC(=O)C[C@@H]1N1C(=O)OC[C@@H]1c1ccccc1", "inactive"),
    ("CCN1C2=NC(=O)N(C)C(=O)C2(Cl)C(C(SC)S(=O)(=O)c2ccc(C)cc2)c2ccccc21 (stereo unspecified)", "inactive"),
    ("CCc1n[nH]c(=O)n1/N=C/c1c(O)ccc2ccccc12", "inactive"),
    ("O=c1oc2ccccc2[n+]([O-])c1-c1ccccc1", "inactive"),
    ("CCOC(=O)C1CCn2c(nc3c2c(=O)n(C)c(=O)n3C)S1 (stereo unspecified)", "inactive"),
    ("FC(F)(F)c1cc(N(C2c3ccccc3C=Cc3ccccc32)P(Cl)Cl)cc(C(F)(F)F)c1", "inactive"),
    ("N#CC(C/C=C/c1ccccc1)NNC(=O)c1c(Cl)c(Cl)c(Cl)c(Cl)c1-c1nc2cc(C(=O)c3ccccc3)ccc2[nH]1 (stereo unspecified)", "inactive"),
    ("CCOC(=O)C(C(O)c1ccc([N+](=O)[O-])cc1)P(=O)(OCC)OCC (stereo unspecified)", "inactive"),
    ("O=C(/C=C\\c1ccccc1)Oc1ccc(/C=C2\\CCCCC2=O)cc1", "inactive"),
    ("C=CCN1C(=O)/C(=C/c2ccccc2)NC1=S", "inactive"),
    ("O=C1[C@@H]2C(c3ccccc3Br)=NO[C@@H]2C(=O)N1c1ccc(Cc2ccc(N3C(=O)[C@H]4C(c5ccccc5Br)=NO[C@H]4C3=O)cc2)cc1", "inactive"),
    ("Cc1c2cc[n+](C)cc2c(C)c2c1[nH]c1ccc(O)c(OCC(F)(F)F)c12", "active"),
    ("C(=C\\c1c2oc(-c3ccccc3)cc(-c3ccccc3)c-2c2ccccc12)/C=C1\\c2ccccc2-c2c(-c3ccccc3)cc(-c3ccccc3)[o+]c21.[O-][Cl+3]([O-])([O-])[O-]", "inactive"),
]

----------
tested on: RXF 393; test: NCI tumour cell line growth inhibition, 48 h
Activity calls are given as the source filed them. No stated cut-off is given here; in the data, active = GI50 up to about 1.1 µM and inactive = higher.
# GI50 values compiled below

# COMPOUND, GI50
measured = [
    ("CN(C)c1ccc(C2CC(=O)C(C#N)=C(c3ccccc3)NN2C)cc1 (centres undefined)", "25.2 µM (inactive)"),
    ("COc1c(OC(C)C)cc2cc(O)c(C(=O)NC3Cc4ccc(c(Cl)n4)O[C@@H]4C=C5C#C/C(=C\\C#CC6OC56C4OC4CC(C)(O)C(O)C(C)O4)C(OC4CC(O)C(N(C)C)C(C)O4)COC3=O)cc2c1OC (some centres undefined)", "> 36.3 µM (inactive)"),
    ("Cc1c(C(=O)O)sc2nc[nH]c(=O)c12", "> 100 µM (inactive)"),
    ("CCCC(=O)Oc1ccc(/C=N/NC(N)=S)nc1", "> 100 µM (inactive)"),
]

----------
tested on: HT-29; assay: NCI tumour cell line growth inhibition, 48 h
Activity calls are given as the source filed them. Rule as the data show it: active = GI50 up to about 1.1 µM and inactive = higher.

# COMPOUND, GI50
rows = [
    ("COc1cc2c(c(O)c1O)-c1ccc(OC)c(=O)cc1C(NC(C)=O)CC2 (stereo not given)", "3.91 µM (inactive)"),
    ("COC1=CC(=O)C[C@@H](C)[C@]12Oc1c(Cl)c(OC)cc(OC)c1C2=O", "16.8 µM (inactive)"),
    ("CC(C)/C(Cl)=N\\OC(=O)Nc1ccc(S(N)(=O)=O)cc1", "22.4 µM (inactive)"),
    ("S=c1nc(N/N=C/c2cccs2)c2cn[nH]c2[nH]1", "29.5 µM (inactive)"),
    ("Cn1c(=S)c2nc(SCCN3CCCC3)[nH]c2n(C)c1=O", "> 100 µM (inactive)"),
    ("CCOC(=O)C1CCn2c(nc3c2c(=O)n(C)c(=O)n3C)S1 (stereo not given)", "> 100 µM (inactive)"),
    ("O=C(/C=C1\\NC(=O)c2ccccc2N1)c1ccncc1", "> 100 µM (inactive)"),
    ("COC1=CC(=O)C2(C=C1OC)OC[C@H]1Oc3c(ccc4c3C=CC(C)(C)O4)C(=O)[C@H]12 (stereo not given in full)", "49.2 µM (inactive)"),
    ("C=CCN1C(=O)CNC1=S", "> 100 µM (inactive)"),
    ("Cc1ccc(C(=O)O/N=C2/CCCC/C2=C\\c2ccccc2)cc1", "43.5 µM (inactive)"),
    ("N/C(=N\\N/C=C1\\C=Nc2cc(C(F)(F)F)ccc2C1=O)NO", "> 10 µM (inactive)"),
    ("O=C1CCC(NC(=O)Cc2ccc(O)cc2)C(=O)N1 (stereo not given)", "> 2500 µM (inactive)"),
    ("CC(=O)Oc1ccc(/C=C/C(=O)O[C@H]2CCCC[C@@H]2OC(=O)/C=C/c2ccc(OC(C)=O)c(OC(C)=O)c2)cc1OC(C)=O", "5.47 µM (inactive)"),
    ("O=C(C(=O)n1ncc(Cl)c(Cl)c1=O)n1ncc(Cl)c(Cl)c1=O", "18.2 µM (inactive)"),
    ("CCOP(=O)(OCC)/C(=C/c1ccccc1)CC(C)=O", "> 100 µM (inactive)"),
    ("COc1ccc(-c2[nH]c(=O)n(C3OC(CO)C(O)C(O)C3O)c(=O)c2C#N)cc1 (stereo not given)", "> 100 µM (inactive)"),
    ("CCCCCCCC(=O)NC(C)(C)C(=O)NCC(=O)NC(CC(C)C)C(=O)NC(C)(C)C(=O)NCC(=O)NCC(=O)NC(CC(C)C)C(=O)NC(C)(C)C(=O)NCC(=O)NC(C(=O)NC(CO)CC(C)C)C(C)CC (stereo not given)", "4.05 µM (inactive)"),
    ("CCOC(=O)/C=C/CC(C)(C)CCOC(C)=O", "> 10 µM (inactive)"),
    ("Cc1cc2[nH]c3c(C#N)c4c(c(=O)n3c2cc1C)CCCC4", "> 100 µM (inactive)"),
    ("COc1ccc2[nH]cc(CCNC(=O)[C@](O)(Cc3cn(C)c4ccccc34)[C@@]3(O)OCC(O)C3O)c2c1 (stereo not given in full)", "> 100 µM (inactive)"),
]
